The measured values listed here are drawn from paper PMC8348310.

This section presents compounds with their documented % DPPH Scavenging Mean ± SEM values.
- Method: DPPH free radical scavenging assay
- Assay type: biochemical
- Test conditions: 31.05 µg/mL
Dear colleague, please return just the value in %, with no unit written.

Example entries and their recorded answers appear below.
{"Compound": "O=C1O[C@H]([C@@H](O)CO)C(O)=C1O [Ascorbic acid, ascorbic acid, reference compound]", "Unit info": "%", "Number": 69}
{"Compound": "O=c1c(O)c(-c2ccc(O)cc2O)oc2cc(O)cc(O)c12", "Unit info": "%", "Number": 54}

// returns reported % DPPH Scavenging Mean ± SEM for input Oc1cc(O)cc(O)c1
32

// returns reported % DPPH Scavenging Mean ± SEM for input CCCCCCc1ccccc1
28

###

- Measurement target: UniProt P00690
- Sequence (P00690 16-511): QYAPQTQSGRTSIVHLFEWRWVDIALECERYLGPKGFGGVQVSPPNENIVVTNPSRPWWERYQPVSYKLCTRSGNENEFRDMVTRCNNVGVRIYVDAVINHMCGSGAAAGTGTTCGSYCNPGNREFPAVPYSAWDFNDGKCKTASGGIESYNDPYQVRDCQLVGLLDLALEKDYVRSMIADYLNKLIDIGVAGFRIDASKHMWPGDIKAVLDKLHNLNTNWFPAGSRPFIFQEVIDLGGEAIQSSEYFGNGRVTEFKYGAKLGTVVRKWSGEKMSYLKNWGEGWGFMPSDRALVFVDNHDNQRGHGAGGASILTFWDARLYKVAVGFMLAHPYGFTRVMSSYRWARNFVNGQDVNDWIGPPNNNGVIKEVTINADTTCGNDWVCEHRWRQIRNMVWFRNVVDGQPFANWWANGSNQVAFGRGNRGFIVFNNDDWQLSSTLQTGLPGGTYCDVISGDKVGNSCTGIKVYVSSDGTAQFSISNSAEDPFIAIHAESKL
This section presents compounds with their documented IC50 values.
Dear colleague, please return just the value in µM, with no unit written.

Example entries and their recorded answers appear below.
{"Compound": "O=c1c(O)c(-c2ccc(O)cc2O)oc2cc(O)cc(O)c12 [Morin]", "Unit info": "µM", "IC50": 182}
{"Compound": "Oc1cc(O)cc(O)c1 [Phloroglucinol, Benzene-1,3,5-triol]", "Unit info": "µM", "IC50": 753}

Attention now turns to another entry.
// returns reported IC50 for input CCCCCCc1ccccc1 [1-Hexyl benzene, 1-hexylbenzene]
709

###

- System: Proteus mirabilis
Quantity: MIC
Please append the unit to your numeric answer.

{"Molecule": "O=c1c(O)c(-c2ccc(O)cc2O)oc2cc(O)cc(O)c12", "MIC": "55 µg/mL"}
{"Molecule": "CCCCCCc1ccccc1", "MIC": "250 µg/mL"}
{"Molecule": "CC1(C)S[C@@H]2[C@H](NC(=O)[C@H](N)c3ccccc3)C(=O)N2[C@H]1C(=O)O [Ampicillin, ampicillin, reference compound]", "MIC": "1.9 µg/mL"}

Attention now turns to another entry.
Lookup: MIC / Proteus mirabilis / Oc1cc(O)cc(O)c1
205 µg/mL

###

This section presents compounds with their documented % DPPH Scavenging Mean ± SEM values.
- Method: DPPH free radical scavenging assay
- Format: biochemical
- Test conditions: 500 µg/mL
Dear colleague, please return just the value in %, with no unit written.

{"Compound": "CCCCCCc1ccccc1 [1-Hexyl benzene, 1-hexylbenzene]", "Quantity": "% DPPH Scavenging Mean ± SEM", "Number": 53}
{"Compound": "Oc1cc(O)cc(O)c1 [Phloroglucinol, Benzene-1,3,5-triol]", "Quantity": "% DPPH Scavenging Mean ± SEM", "Number": 57}

// returns reported % DPPH Scavenging Mean ± SEM for input O=C1O[C@H]([C@@H](O)CO)C(O)=C1O [Ascorbic acid, ascorbic acid, reference compound]
86
